The entries below come with measured EC50 values attached.
Measured on: Peroxisome proliferator-activated receptor alpha (Homo sapiens, UniProt Q07869)
Test name: Agonist activity at PPARalpha (unknown origin) incubated for 3 to 16 hrs by pathhunter nuclear hormone receptor assay
Response body: numeric value in µM, unit text excluded.

[[record]]
molecule = "CSc1ccc(C(=O)/C=C/c2cc(C)c(OC(C)(C)C(=O)O)c(C)c2)cc1 [ELAFIBRANOR]"
endpoint_name = "EC50"
test_result = 0.225


Could you now consider this next molecule?
Quick one: EC50 for `Cc1cc(Cc2cc(-c3ccccc3)on2)cc(C)c1OC(C)(C)C(=O)O` ?
0.385

* * *

Measured on: Cytochrome P450 2C19 (Homo sapiens, UniProt P33261)
Sequence (P33261 whole entry): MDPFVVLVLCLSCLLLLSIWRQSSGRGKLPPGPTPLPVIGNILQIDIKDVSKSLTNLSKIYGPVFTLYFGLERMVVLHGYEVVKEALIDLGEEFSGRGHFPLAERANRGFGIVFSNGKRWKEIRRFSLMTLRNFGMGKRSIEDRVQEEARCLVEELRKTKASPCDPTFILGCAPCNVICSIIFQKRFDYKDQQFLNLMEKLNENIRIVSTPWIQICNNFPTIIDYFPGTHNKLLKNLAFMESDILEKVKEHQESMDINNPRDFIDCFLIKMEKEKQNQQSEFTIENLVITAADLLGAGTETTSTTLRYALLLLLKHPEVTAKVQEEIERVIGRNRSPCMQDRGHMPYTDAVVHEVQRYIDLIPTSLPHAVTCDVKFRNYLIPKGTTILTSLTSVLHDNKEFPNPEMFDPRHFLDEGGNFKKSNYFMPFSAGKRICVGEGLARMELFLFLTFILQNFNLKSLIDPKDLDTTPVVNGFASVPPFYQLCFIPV
pIC50: −log10 of the molar value.
Endpoint name: pIC50

Request body: readout pIC50, system Cytochrome P450 2C19 (Homo sapiens, UniProt P33261), query `Cc1cc(Cc2cc(-c3ccc(Br)cc3)on2)cc(C)c1OC(C)(C)C(=O)O` . Return the value.
< 4.30

* * *

Test name: AUC (0 to last) in C57BL/6J mouse at 1 mg/kg, iv measured upto 24 hrs by LC-MS/MS analysis
Format: ADME, organism-based
Parameters: dose 1 mg/kg, time 0 - last, route intravenous
Experimental parameters: in vivo
Endpoint name: AUC(0-t) at 24 h (µM·h)
Response body: numeric value in µM·h, unit text excluded.

Quick one: AUC(0-t) at 24 h for `Cc1cc(Cc2cc(-c3ccc(Br)cc3)on2)cc(C)c1OC(C)(C)C(=O)O` ?
10.6

* * *

Test name: Efflux ratio of apparent permeability across basolateral to apical over apical to basolateral side in human Caco2 cells at 2 uM incubated for 120 mins by LC-MS/MS analysis
Type: ADME, cell-based
Experimental parameters: Caco-2
Endpoint name: efflux ratio at 2 h, 2 µM
Output spec: single numeric token, no unit.

Quick one: efflux ratio at 2 h, 2 µM for `Cc1cc(Cc2cc(-c3ccc(Br)cc3)on2)cc(C)c1OC(C)(C)C(=O)O` ?
0.4

* * *

The entries below come with measured Activity values attached.
Measured on: Peroxisome proliferator-activated receptor alpha (Homo sapiens) (UniProt Q07869)
Sequence (whole entry): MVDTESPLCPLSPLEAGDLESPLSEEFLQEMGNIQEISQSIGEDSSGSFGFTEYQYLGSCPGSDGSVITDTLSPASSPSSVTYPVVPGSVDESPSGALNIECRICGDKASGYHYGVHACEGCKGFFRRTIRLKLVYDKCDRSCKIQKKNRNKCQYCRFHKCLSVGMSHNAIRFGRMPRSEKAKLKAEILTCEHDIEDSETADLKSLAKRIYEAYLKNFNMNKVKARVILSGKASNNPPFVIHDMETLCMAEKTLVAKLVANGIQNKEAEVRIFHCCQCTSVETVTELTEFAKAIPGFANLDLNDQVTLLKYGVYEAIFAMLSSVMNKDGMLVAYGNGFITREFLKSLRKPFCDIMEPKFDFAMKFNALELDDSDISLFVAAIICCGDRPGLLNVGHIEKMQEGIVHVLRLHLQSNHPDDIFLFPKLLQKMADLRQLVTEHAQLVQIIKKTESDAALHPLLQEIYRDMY
Test name: Agonist activity at PPARalpha (unknown origin) incubated for 3 to 16 hrs by pathhunter nuclear hormone receptor assay relative to GW7647
Parameters: concentration or dose not given beside the values
Response body: numeric value in %, unit text excluded.

Some molecules with known Activity results, for comparison:
[[record]]
query_smiles = "Cc1cc(Cc2cc(-c3ccc(Br)cc3)on2)cc(C)c1OC(C)(C)C(=O)O"
test_result = 92

[[record]]
query_smiles = "Cc1cc(CCc2cc(-c3ccc(Br)cc3)on2)cc(C)c1OC(C)(C)C(=O)O"
test_result = 134

[[record]]
query_smiles = "Cc1cc(Cc2noc3c2CCOc2cc(Br)ccc2-3)cc(C)c1OC(C)(C)C(=O)O"
test_result = 50


Quick one: Activity for `Cc1cc(-c2cc(-c3ccc(Br)cc3)on2)cc(C)c1OC(C)(C)C(=O)O` ?
5

Quick one: Activity for `Cc1cc(Cc2cnoc2-c2ccc(Br)cc2)cc(C)c1OC(C)(C)C(=O)O` ?
78

Quick one: Activity for `Cc1cc(Cc2onc3c2CCOc2cc(Br)ccc2-3)cc(C)c1OC(C)(C)C(=O)O` ?
85

Quick one: Activity for `CSc1ccc(C(=O)/C=C/c2cc(C)c(OC(C)(C)C(=O)O)c(C)c2)cc1` ?
117

Quick one: Activity for `Cc1cc(Cc2cc(-c3ccccc3)on2)cc(C)c1OC(C)(C)C(=O)O` ?
85
